Where do these numbers come from? They come from ChEMBL document CHEMBL3400064.

experiment: Cytotoxicity against mouse NIH/3T3 cells assessed as viability at 15 uM after 48 hrs by alamarBlue assay; type: cell-based, NIH3T3; settings: read-out: Activity
Documented viability at 48 h, 15 µM across a set of molecules
A number alone suffices; assume %.

Past entries and their recorded results:
>>> print(df.to_string())
                               given_smiles         quantity_measured  observed_result
0  COc1ccc(C(=O)Nc2cccc(-c3nc4ccccc4[nH]3)c2)cc1  viability at 48 h, 15 µM             54.1
1  O=C(Nc1cccc(-c2nc3ccccc3[nH]2)c1)c1ccc(F)cc1  viability at 48 h, 15 µM            -11.9

viability at 48 h, 15 µM reading for "Cc1ccc2[nH]c(-c3cccc(NC(=O)c4cccs4)c3)nc2c1" : 14.1

viability at 48 h, 15 µM reading for "O=C(Nc1cccc(-c2nc3ccccc3[nH]2)c1)c1cccs1" : -0.6

====

tested on: Leishmania donovani; test: Antileishmanial activity against axenic amastigote Leishmania donovani MHOM/SD/1962/1S-Cl2d assessed as inhibition of parasite growth after 24 hrs at 15 uM by alamarBlue assay; format: functional
Given measured inhibition at 15 µM, output fulfilled if it is greater than or equal to 60% and not fulfilled if not.

Solved entries (count: 10):
In [3]: df
Out[3]:
                               given_smiles    label_class
0  CCCn1c(-c2cccc(NC(=O)c3cccs3)c2)nc2ccccc21      fulfilled
1  O=C(Nc1cccc(-c2nc3ccccc3[nH]2)c1)c1ccccn1  not fulfilled
2  O=C(Nc1cccc(-c2nc3ccccc3[nH]2)c1)c1ccoc1  not fulfilled
3  CCc1ccccc1C(=O)Nc1cccc(-c2nc3ccccc3[nH]2)c1  not fulfilled
4  O=C(Nc1cccc(-c2nc3ccccc3[nH]2)c1)c1cc(Br)cc(Br)c1  not fulfilled
5  O=S(=O)(Nc1cccc(-c2nc3ccccc3[nH]2)c1)c1ccccc1  not fulfilled
6  CN(C(=O)c1cccs1)c1cccc(-c2nc3ccccc3[nH]2)c1  not fulfilled
7  O=C(Nc1cccc(-c2nc3ccccc3[nH]2)c1)c1ccccc1C(F)(F)F      fulfilled
8  CCn1c(-c2cccc(NC(=O)c3cccs3)c2)nc2ccccc21      fulfilled
9  O=C(Nc1cccc(-c2nc3ccccc3[nH]2)c1)c1ccccc1Cl  not fulfilled

For this compound, is measured inhibition at 15 µM 60% or higher? "O=C(Nc1ccccc1)c1cccc(-c2nc3ccccc3[nH]2)c1" not fulfilled

For this compound, is measured inhibition at 15 µM 60% or higher? "O=C(Nc1cccc(-c2nc3ccccc3[nH]2)c1)c1ccccc1" not fulfilled

For this compound, is measured inhibition at 15 µM 60% or higher? "Cc1ccc2[nH]c(-c3cccc(NC(=O)c4cccs4)c3)nc2c1" not fulfilled

For this compound, is measured inhibition at 15 µM 60% or higher? "O=C(Nc1ccccc1-c1nc2ccccc2[nH]1)NC1CCCCC1" fulfilled
